Each item that follows carries a reported Kd.
Molecular target: human uPAR (uPAR-Fc) (Homo sapiens, UniProt Q03405)
Construct: comprising amino acids Leu23-Arg303 according to UniProt entry Q03405.1; purchased R&D Systems 10378-UK-100
Sequence (Q03405 23-303): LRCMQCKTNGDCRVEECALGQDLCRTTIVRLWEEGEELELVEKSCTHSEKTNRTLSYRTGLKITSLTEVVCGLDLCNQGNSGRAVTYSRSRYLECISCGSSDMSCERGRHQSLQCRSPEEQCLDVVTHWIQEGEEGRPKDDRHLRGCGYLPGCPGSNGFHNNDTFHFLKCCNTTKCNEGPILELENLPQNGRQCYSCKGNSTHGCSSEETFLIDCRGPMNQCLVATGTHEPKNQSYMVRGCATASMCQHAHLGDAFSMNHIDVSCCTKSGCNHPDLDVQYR
Assay: Surface plasmon resonance (SPR) assay, single cycle kinetics
Assay type: binding
Conditions: pKD category for uPAR SPR activity assay; uPAR-Fc on Protein A-Chip, single cycle kinetics, 25°C; read-out: pKD CAT (converted)
Protocol: Surface plasmon resonance (SPR) is an optical technique used to measure molecular interactions in real time. SPR occur when plane-polarized light hits a metal film under total internal reflection conditions. […] In an SPR experiment, one molecule (i.e. uPAR) is immobilized on a sensor chip and binding to a second molecule (i.e. test compounds) is measured under flow. […] This response is measured in resonance units (RU). […]
Where a SMILES comes first, the peptide text is derived from it. Bridges are numbered along the chain shown (N, C = ends). The star is where a group is joined. DOTA = O=C(O)CN1CCN(CC(=O)O)CCN(CC(=O)*)CCN(CC(=O)O)CC1; Pentanoyl(4-Me) = CC(C)CCC(=O)*; Hexanoyl = CCCCCC(=O)*

compound: CCCCCC(=O)N[C@@H](CC(=O)O)C(=O)N[C@@H](CC(C)C)C(=O)N[C@H]1CSSC[C@@H](C(N)=O)NC(=O)[C@H](CC(C)C)NC(=O)[C@H]([C@@H](C)CC)NC(=O)[C@H](C)NC(=O)[C@@H]2CCCN2C(=O)[C@H](Cc2ccccc2)NC(=O)[C@H](Cc2ccc(O)cc2)NC(=O)[C@H](CCSC)NC(=O)[C@H](CCCNC(=N)N)NC1=O [UPAR-363] (Hexanoyl-DLCRMYFPAILC-NH2; disulfide 3-12)
Kd: < 1.58 nM
--
compound: CC[C@H](C)[C@@H]1NC(=O)[C@@H]2CCCN2C(=O)[C@@H]2CCCN2C(=O)[C@H](Cc2ccccc2)NC(=O)[C@H](Cc2ccc(O)cc2)NC(=O)[C@H](CCC(N)=O)NC(=O)[C@H](CCCCNC(=O)CN2CCN(CC(=O)O)CCN(CC(=O)O)CCN(CC(=O)O)CC2)NC(=O)[C@@H](NC(=O)CCC(C)C)CSSC[C@@H](C(N)=O)NC(=O)[C@H](CC(C)C)NC1=O [UPAR-466] ({Pentanoyl(4-Me)}-CK(DOTA)QYFPPILC-NH2; disulfide 1-10)
Kd: < 1.58 nM
